These measurements were taken from the supplement of paper PMC8967900.

- System: MOLT-16;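 further: ALL cell lines in 384-well plates, five doses spanning 10,000-fold, each plate scaled between vehicle and 100 µmol/L benzalkonium chloride controls, sDSS an adapted area-under-curve metric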
- MEASUREMENT_DESCRIPTION: selective drug sensitivity score (sDSS, relative to normal bone marrow) (sDSS (score)); higher = more potent and effective on the cell line relative to normal bone marrow cells
- PROTOCOL_CONDITIONS: 72 h
REPORTED_METRIC: selective drug sensitivity score
One number for each entry.

Sample answers from the record:
COMPOUND	MEAS_VALUE
CC(O)(CS(=O)(=O)c1ccc(F)cc1)C(=O)Nc1ccc(C#N)c(C(F)(F)F)c1 (stereo not drawn) [Bicalutamide] (top concentration 10000 nM)	6.92
COc1cccc2c1C(=O)c1c(O)c3c(c(O)c1C2=O)C[C@@](O)(C(=O)CO)C[C@@H]3O[C@H]1C[C@H](N)[C@@H](O)[C@H](C)O1 [Epirubicin] (top concentration 1000 nM)	15.4

Now look at this one.
Provide measured selective drug sensitivity score value, entry: NC(=O)/C(=C/n1cnc(-c2cc(C(F)(F)F)cc(C(F)(F)F)c2)n1)c1cncnc1 [Eltanexor] (top concentration 10000 nM)
14.4
